The origin of these recorded values is patent US4880924A.

# target-under-test: sodium-dependent GABA binding sites (Mus musculus)
# assay-name: displacement of 3H-GABA from sodium-dependent GABA binding sites in mouse brain membranes (GABA reuptake inactivation process)
# assay-conditions: read-out: Concentration of the test compound showing 50% inhibition of labelled ligand binding

| molecule | IC50, µM |
| --- | --- |
| NCCC(C(=O)O)C1COC(=O)C1 (stereo not shown) | 25 |

---

# target-under-test: GABA receptor sites
# assay-name: displacement of 3H-muscimol from specific GABA receptor sites in mouse brain membranes
# assay-conditions: read-out: Concentration of the test compound showing 50% inhibition of labelled ligand binding
property-label: IC50 (nM)

| compound | property-label | endpoint-unit | endpoint-value |
| --- | --- | --- | --- |
| NCCC(C(=O)O)C1COC(=O)C1 (stereo not shown) | IC50 | nM | 2100 |
